- TARGET OF ASSAY: Nuclear receptor subfamily 1 group I member 2 (Homo sapiens) (UniProt O75469)
- Sequence (O75469 whole entry, looked up): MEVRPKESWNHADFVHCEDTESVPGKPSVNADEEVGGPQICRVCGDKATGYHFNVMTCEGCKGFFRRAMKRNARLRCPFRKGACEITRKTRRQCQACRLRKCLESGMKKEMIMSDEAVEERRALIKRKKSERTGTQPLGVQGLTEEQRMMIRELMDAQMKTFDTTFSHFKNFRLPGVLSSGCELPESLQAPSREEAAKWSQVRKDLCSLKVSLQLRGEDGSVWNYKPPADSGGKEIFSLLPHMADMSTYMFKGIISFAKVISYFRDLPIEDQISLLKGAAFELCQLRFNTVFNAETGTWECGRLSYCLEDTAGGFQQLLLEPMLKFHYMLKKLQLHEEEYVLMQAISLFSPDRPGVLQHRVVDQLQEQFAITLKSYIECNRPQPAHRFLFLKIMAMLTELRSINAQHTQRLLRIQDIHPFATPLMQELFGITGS
- TEST: ATG_PXR_TRANS: Attagene TRANS-FACTORIAL HepG2 Assay for human Pregnane X Receptor (PXR) (AID 2283008)
Inconclusive results are not listed. Activity calls are given as the source filed them. Rule for the calls: active = hit-call score of the fitted dose curve at least 0.9, where 1 is the maximum; inconclusive = response in the unintended direction; inactive = score below 0.9.
Valid outcomes are listed here; reply with one: yes = active, no = inactive

Challenge: Would you mind telling me which call this test gave Nc1ccc2cc3ccccc3cc2c1 ?
Response given: no

Challenge: Look up the recorded call for NC(=O)N=NC(N)=O in this test.
Response given: no

Challenge: Field: outcome | Entry: O=C(Oc1ccccc1)c1ccc2ccccc2c1O
Response given: yes

Challenge: Query: recorded result category for CCCCC(CC)COC(=O)c1ccccc1O (stereo not given) in this test
Response given: no

====

- TEST: ATG_CMV_CIS: Attagene CIS-FACTORIAL HepG2 Assay for human CMV (Internal Marker) (AID 2282928);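 note: endpoint acts as a background internal control marker rather than a target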
- ASSAY CONTEXT: HepG2 CMV promoter reporter, transcription factor profiling; actives raise or lower the signal
The source made the active and inactive calls. How the source made its calls: active means hit-call score of the fitted dose curve at least 0.9, where 1 is the maximum; inactive means score below 0.9.
Result category, one only: Y for active, N for inactive

Known results for compounds:
Challenge: Query: recorded result category for C=CCOCC(O)CCl (stereo not drawn) in this test
Response given: N

Challenge: Dear all, I need the recorded test outcome for O=C(/C=C/C=C/c1ccc2c(c1)OCO2)N1CCCCC1 , thank you.
Response given: N

Challenge: Could you please tell me the result logged for C=CC(=O)OCCC(=O)O in this assay?
Response given: N

Challenge: # fetch the recorded call for NC(=O)OCC(COC(N)=O)c1ccccc1 here
Response given: N

Challenge: Record request — test call for CC1=CC[C@H]2C[C@@H]1C2(C)C
Response given: N

Challenge: What call does the record list for C[Si](C)O[Si](C)(C)O[Si](C)(C)O[Si](C)C ?
Response given: N

Challenge: Hi team, can someone confirm the assay call for O=c1cc[nH]c(=S)[nH]1 ?
Response given: N

Challenge: Outcome? CC1=NC(C)OC1C (stereo not drawn)
Response given: Y

Challenge: Just curious, what result did COCc1c(C(C)C)nc(C(C)C)c(/C=C/[C@@H](O)C[C@@H](O)CC(=O)O)c1-c1ccc(F)cc1 get here?
Response given: N

Challenge: What is the recorded call for this compound in the test? O=S1(=O)OC(c2ccc(O)cc2)(c2ccc(O)cc2)c2ccccc21
Response given: N

Further cases:
Challenge: Which outcome did this test record for the compound CCCCCCCCCCCCCCCCCC#N ?
Response given: N

Challenge: Hello, I am checking results. What call was entered for CCC(Cc1ccccc1)(C(=O)c1ccc(N2CCOCC2)cc1)N(C)C (stereo not drawn) ?
Response given: N

Challenge: Could you check what this test reported for Nc1ccc(-c2ccc(F)cc2)cc1 ?
Response given: N

Challenge: Test call, this compound: Cc1ccc(C(C)(C)C)cc1
Response given: N

Challenge: Outcome? CC(=O)C=CC1C(C)=CCC(C)C1(C)C (stereo not drawn)
Response given: N

Challenge: Could you kindly confirm the outcome this assay logged for C[Si](C)(C)O[Si](O)(O)O ?
Response given: N

Challenge: What classification did Cc1ccc(C2OC[C@@H]3OC(c4ccc(C)cc4)O[C@H]([C@H](O)CO)[C@@H]3O2)cc1 (stereo partly drawn) end up with in this test?
Response given: N

Challenge: Identify the outcome logged in this assay for the compound shown: CC(=O)OCC(=O)[C@@]12N=C(C)O[C@@H]1C[C@H]1[C@@H]3CCC4=CC(=O)C=C[C@]4(C)[C@H]3[C@@H](O)C[C@@]12C
Response given: N

====

- TEST: ATG_ISRE_CIS: Attagene CIS-FACTORIAL HepG2 Assay for human Interferon Regulatory Factor 1 (IRF1) binding to an Interferon-Stimulated Response Element (ISRE) (AID 2282948)
- ASSAY CONTEXT: HepG2 ISRE cis-reporter (Attagene), mRNA transcription readout; actives raise or lower the signal
The source made the active and inactive calls. How the source made its calls: active means hit-call score of the fitted dose curve at least 0.9, where 1 is the maximum; inactive means score below 0.9.
Respond using exactly one of the listed classes: 1 (yes) for active, 0 (no) for inactive

Solved cases below.
Challenge: Dear colleague, could you share the recorded outcome for CC(C)=CCC[C@H](C)CCO when you have a moment?
Response given: 0 (no)

Challenge: Dear colleague, could you share the recorded outcome for O=CN1CCCCC1 when you have a moment?
Response given: 0 (no)

Next:
Challenge: Would you mind telling me which call this test gave c1ccc(-c2ccccn2)nc1 ?
Response given: 0 (no)

Challenge: So what was the verdict on O=C1CCCCCCCCCCC(=O)OCCO1 in this test?
Response given: 0 (no)

====

- TARGET OF ASSAY: Cellular tumor antigen p53 (Homo sapiens)
- TEST: TOX21_p53_BLA_p2_ratio: Tox21 HCT-116 p53 Agonism Beta-lactamase Assay, Ratio, Phase 2 (AID 2283592)
Results filed as inconclusive are left out. The source made the active and inactive calls. The calls were made as follows: active = hit-call score of the fitted dose curve at least 0.9, where 1 is the maximum; inconclusive = response in the unintended direction; inactive = score below 0.9.
MEASURED PARAMETER: outcome

Known results for molecules:
Challenge: For the record NC(CO)(CO)CO , what value of outcome is listed for Cellular tumor antigen p53 (Homo sapiens)?
Response given: inactive

Challenge: What is its outcome for Cellular tumor antigen p53 (Homo sapiens)? Entry: O=C(/C=C/C=C/c1ccc2c(c1)OCO2)N1CCCCC1
Response given: inactive

Challenge: Form field: outcome recorded for CC1(C)O[C@@H]2C[C@H]3[C@@H]4C[C@H](F)C5=CC(=O)CC[C@]5(C)[C@H]4[C@@H](O)C[C@]3(C)[C@]2(C(=O)CO)O1 with Cellular tumor antigen p53 (Homo sapiens) (enter value)
Response given: inactive

Challenge: Item: CC(C)COC(=O)C=Cc1ccccc1 Test system: Cellular tumor antigen p53 (Homo sapiens) Read-out: outcome Value: ?
Response given: inactive

Challenge: Request - read-out outcome | tested on Cellular tumor antigen p53 (Homo sapiens) | molecule CCOC(=O)CC
Response given: inactive

Challenge: So what outcome did CC(C)CC(O)Cc1ccccc1 (stereo not given) get with Cellular tumor antigen p53 (Homo sapiens)?
Response given: inactive

I would be grateful if you could provide outcome for each of the following entries.
1. CCc1nccnc1C
2. C[C@]12CCC(=O)C=C1CC[C@@H]1[C@@H]2C(=O)C[C@@]2(C)[C@H]1CC[C@]2(O)C(=O)CO
3. C=CC(=O)OCCC(=O)O
4. C=C(C)[C@@H]1CCC2=CCC[C@@H](C)[C@]2(C)C1
5. CN(C)CCCN(C)C
6. Cc1cccc(OCCOc2cccc(C)c2)c1
7. C=CC(C)(C)C

Response given:
["inactive", "inactive", "inactive", "inactive", "inactive", "inactive", "inactive"]

For each entry beneath this line, provide reported outcome.
1. CCCCCCCC/C=C\CCCCCCCC(=O)O
2. CC1OC1C1CCC2(C)OC2C1 (stereo not given)

Response given:
1: inactive; 2: inactive

====

- TARGET OF ASSAY: X-box-binding protein 1 (Homo sapiens) (UniProt P17861)
- Sequence (P17861 whole entry, looked up): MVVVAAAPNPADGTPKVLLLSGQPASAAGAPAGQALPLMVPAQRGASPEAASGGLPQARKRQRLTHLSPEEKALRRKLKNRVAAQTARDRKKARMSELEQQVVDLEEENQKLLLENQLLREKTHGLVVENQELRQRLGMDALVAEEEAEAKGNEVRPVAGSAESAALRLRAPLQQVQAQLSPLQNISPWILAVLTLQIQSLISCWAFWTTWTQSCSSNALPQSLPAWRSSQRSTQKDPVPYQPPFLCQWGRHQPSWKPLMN
- TEST: ATG_Xbp1_CIS: Attagene CIS-FACTORIAL HepG2 Assay for human X-box Binding Protein 1 (XBP1) (AID 2282972)
- ASSAY CONTEXT: HepG2 XBP1 cis-element reporter, Attagene multiplex; actives raise or lower the signal
Active and inactive are the calls of the source. The calls were made as follows: active = hit-call score of the fitted dose curve at least 0.9, where 1 is the maximum; inactive = score below 0.9.
Hi there, use one of these labels in your reply, thanks! Yes = active, No = inactive

Before answering, review these 5 worked examples.
Challenge: What is the recorded call for this molecule in the test? CCC(C)C=O (configuration not stated)
Response given: No

Challenge: How was CC=CCO classified in this test?
Response given: No

Challenge: What outcome does the record of this test show for CC(C)COC(=O)C=Cc1ccccc1 ?
Response given: No

Challenge: Check the results log: what was the call for NC(CO)(CO)CO ?
Response given: No

Challenge: Dear colleague, could you share the recorded outcome for CC(=O)Oc1ccc(C)cc1 when you have a moment?
Response given: No

Next:
Challenge: Could you check what this test reported for CCOC(=O)N1CCC(=C2c3ccc(Cl)cc3CCc3cccnc32)CC1 ?
Response given: No

====

- TARGET OF ASSAY: Retinoic acid receptor alpha (Homo sapiens)
- TEST: ATG_RARa_TRANS: Attagene TRANS-FACTORIAL HepG2 Assay for human Retinoic Acid Receptor alpha (RARa) (AID 2283005)
Inconclusive results are not listed. Activity calls are given as the source filed them. The calls were made as follows: active = hit-call score of the fitted dose curve at least 0.9, where 1 is the maximum; inconclusive = response in the unintended direction; inactive = score below 0.9.
Choose the fitting class; nothing outside t (active), f (inactive) is accepted.

See these solved cases before continuing.
Challenge: // outcome(item) with item = O=P(O)(O)Oc1ccccc1
Response given: f

Challenge: Any idea what this test logged for c1ccc2c(c1)ccc1ncccc12 ?
Response given: t

Challenge: Recorded test outcome, item CCCC(C)CCC(C)=O (configuration not stated)
Response given: f

Challenge: How did this test come out for C#CC1(O)CC[C@H]2[C@@H]3CCC4=CCCC[C@@H]4[C@H]3CC[C@@]21C (some centres not stated) ?
Response given: f

Challenge: Outcome? C=CC(=O)NC(C)(C)CS(=O)(=O)O
Response given: f

Challenge: Could you kindly confirm the outcome this assay logged for Cn1c(=O)[nH]c2ncn(C)c2c1=O ?
Response given: f

Continuing:
Challenge: I'd appreciate the recorded outcome for CCCCCCCCCCCCCCCC[N+](C)(C)CC from this test.
Response given: t

Challenge: Identify the outcome logged in this assay for the compound shown: C=C(C)CCO
Response given: f
